# Experimental target: ATP synthesis activity of M. smegmatis membranes
# Assay method text: ATP synthesis assay with M. smegmatis membranes (luciferase/luciferin luminescence, 384 well plate)
# Experimental setup: 10 μg/ml M. smegmatis membrane, 1 mM NADH, 25 μM ADP, 10 mM K-Pi, pH 7.0, total volume 20 μL; read-out: IC50, ATP synthesis activity normalized to the positive control
Attribute measured: pIC50
Give bare numbers, as −log10 of the molar value.

Ask: // pIC50 lookup, key: COc1nc2ccc(Br)cc2cc1[C@@H](c1ccccc1)[C@@](O)(CCN(C)C)c1cccc2ccccc12
Reply: 9.83
